- assay-info: Apparent permeability across Caco-2 cells
- Type: ADME, cell-based
- measurement-conditions: human
readout-label: Papp (nm/s)
Numbers only here, please. The scale is nm/s.

Task: Could you share which Papp value was measured for "CCN1CCN(C(=O)N[C@@H](C(=O)N[C@@H]2C(=O)N3[C@@H]2SC(C)(C)[C@@H]3C(=O)O)c2ccccc2)C(=O)C1=O" ?
Result: 0.325
